All figures here come from patent US12157773.

Molecular target: T1, mIL27Rα ECD antigen (mouse, UniProt O70394 25-510)
T1 construct: Antigen of biopanning and PE-ELISA; The immunogen was made as a fusion of the ECD (residues 25-510 of the precursor) with the human IgG1 hinge and Fc; also called ECD of mouse IL27Rα; IL27Rα coated on the plate
T1 sequence: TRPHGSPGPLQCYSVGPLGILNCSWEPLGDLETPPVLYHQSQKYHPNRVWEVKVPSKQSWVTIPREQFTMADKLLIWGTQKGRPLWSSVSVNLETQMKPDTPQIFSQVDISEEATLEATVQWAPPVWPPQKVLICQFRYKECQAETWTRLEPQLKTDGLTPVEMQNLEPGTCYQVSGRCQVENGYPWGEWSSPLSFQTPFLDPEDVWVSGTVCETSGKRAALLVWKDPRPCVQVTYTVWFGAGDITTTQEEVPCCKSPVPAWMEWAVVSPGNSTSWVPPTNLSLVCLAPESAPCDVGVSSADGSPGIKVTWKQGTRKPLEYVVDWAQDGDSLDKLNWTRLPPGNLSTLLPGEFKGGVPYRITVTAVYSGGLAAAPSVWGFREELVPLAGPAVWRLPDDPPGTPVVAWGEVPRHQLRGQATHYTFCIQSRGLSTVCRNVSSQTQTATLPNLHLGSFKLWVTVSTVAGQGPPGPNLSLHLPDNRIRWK
Test: PE-ELISA, periplasmic extract on antigen-coated plate
VALUE KIND: binding result

Given item mIL27Ra VHH11 (VHH, Camel VHH as periplasmic extract of a phage clone in the PE-ELISA; also called anti-mouse IL27Rα VHH; not shown: HA/His tag from the pMECS phagemid) VHH: QVQLQESGGGSVQAGGSLRLSCAVSGDSTYSMGWFRQPPGKEREGVAAITKDITIHADSVKGRFTISKDNAKNTLYLQMNSLRPEDTAMYYCAAHRPYGPPLNPRWYTYWGQGTQVTVSS , the value recorded as its binding result is binds

Note to self: binding result recorded for mIL27Ra VHH13 (VHH, Camel VHH as periplasmic extract of a phage clone in the PE-ELISA; also called anti-mouse IL27Rα VHH; not shown: HA/His tag from the pMECS phagemid) VHH: QVQLQESGGGSVQAGGSLRLSCAASGYSINRMGWFRQAPGKEREGVAAISIGGGRTYYADSVKGRFTISQDNAKNTVDLQMNSLKPEDTAMYYCAAGLVYGEAWLDSRHYNKWGQGTQVTVSS was binds

// binding result value for mIL27Ra VHH12 (VHH, Camel VHH as periplasmic extract of a phage clone in the PE-ELISA; also called anti-mouse IL27Rα VHH; not shown: HA/His tag from the pMECS phagemid) VHH: QVQLQESGGGSVQTGGSLRLSCAASGYSINRMAWFRQAPGKEREGVAAISIGGDRTYYADSVKGRFTISQDNAKHTVDLQMNSLKPEDTAMYYCAAGLVYGEAWLDSRHYNKWGQGTQVTVSS : binds

Reported binding result for mIL27Ra VHH7 (VHH, Camel VHH as periplasmic extract of a phage clone in the PE-ELISA; also called anti-mouse IL27Rα VHH; not shown: HA/His tag from the pMECS phagemid) VHH: QVQLQESGGGSVQAGGSLRLSCAVSGDSTYSMGWFRQPPGKEREGVAAITKDITIHADSVKGRFTISKDNAKNTLYLQMNSLKPEDTAMYYCAAHRPYGPPLNPRWYTYWGQGTQVTVSS was binds
